Assay info: Solubility of cyanine dye in DAA at 20° C.
Type: physicochemical
Experimental setup: diacetone alcohol (DAA), 20 °C, organic solvent or mixture, in diacetone alcohol (DAA) at 20° C.; read-out: Solubility
Record form. Attribute: Solubility. Fill in for each entry.
Please state the figure in µg/mL; there is no need to write the unit.

Prompt: Given CN1C(=CC=CC2=[N+](C)c3ccc4ccccc4c3C2(C)C)C(C)(C)c2ccc3ccccc3c21 , state its recorded Solubility.
Response: 2700

Prompt: Given CCCC[N+]1=C(C=CC=C2N(C)c3c(ccc4ccccc34)C2(C)C)C(C)(C)c2c1ccc1ccccc21 , state its recorded Solubility.
Response: 64000

Prompt: Given CCCCN1C(=CC=CC2=[N+](CCC)c3ccc4ccccc4c3C2(C)C)C(C)(C)c2c1ccc1ccccc21 [Chemical Formula 75, reference compound] , state its recorded Solubility.
Response: 19000

Prompt: Given CN1C(=CC=CC2=[N+](C)c3ccc4ccccc4c3C2(C)C)C(C)(C)c2c1ccc1ccccc21 , state its recorded Solubility.
Response: 1100

Prompt: Given CCCN1C(=CC=CC2=[N+](CC)c3ccc4ccccc4c3C2(C)C)C(C)(C)c2c1ccc1ccccc21 , state its recorded Solubility.
Response: 2800
